- MEASUREMENT_PROTOCOL: chemical genetic growth profiling, strain panel (AID 1159580);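 further: tested at 20 µM; growth read once vehicle control cultures reached saturation at 30 °C; 1 = growth at the plate median or of vehicle wells; lower values mean less growth of the strain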
- CONDITION_LABEL: S. cerevisiae deletion strains, growth OD, locus YPR119W, strain clb2, stronger effect = lower value
Among all 5,500 compounds or so, about 2,000 (36%) were called active. About 18% were inconclusive and are not listed. The list shows a part of the results.
READOUT: normalized growth
Give the value as a plain number.

Req: Entry `Oc1cc(O)c2c(c1)O[C@H](c1ccc(O)c(O)c1)[C@@H](O)C2` : reported normalized growth = ?
Resp: 0.983

Req: Could you do the same for `Oc1cc(O)c2c(c1)O[C@H](c1ccc(O)c(O)c1)[C@H](O)C2` , please?
Resp: 0.978

Req: Could you do the same for `COc1ccc([C@H]2Oc3c(I)c(OC)cc(OC)c3C[C@@H]2O)cc1OC` , please?
Resp: 1.03

Req: Could you do the same for `O=C1c2ccc(O)cc2O[C@H](c2cc(O)c(O)c(O)c2)[C@H]1O` , please?
Resp: 1

Req: Could you do the same for `Oc1ccc2c(c1)O[C@H](c1ccc(O)c(O)c1)[C@@H](O)C2` , please?
Resp: 0.996

The origin of these recorded values is PubChem BioAssay AID1159580.
